MEASUREMENT_DESCRIPTION: FRG1 expression reporter modulators in myotubes – cell-based, C2C12 myotubes, firefly/Renilla luciferase, luminescence, FRG1 inhibition for FSHD, primary screen (AID 1084)
TEST_SETTINGS: FRG1 promoter luciferase, higher = more signal, called active from +8 up or from −8 down
# Lookup of reported z-score keyed by entry
Format: numeric value only, no unit, no commentary.

Below, each entry is followed by its recorded z-score result.
q: Need z-score, item `O=C1O[C@H](c2ccccc2)[C@H](c2ccccc2)N2[C@H]1[C@@H](C(=O)NC[C@H](O)c1ccccc1)[C@]1(C(=O)Nc3ccccc31)[C@H]2c1ccccc1OCCO`
a: -1.13

q: Need z-score, item `C=C[C@H](C)[C@H](OC(=O)Nc1ccc(SC)cc1)c1ccc(O)c2ccccc12`
a: 2.77

q: Need z-score, item `C=CC[C@]1(C(=O)N(C)C)N=C(c2ccc(OCCCO)cc2)O[C@H]1c1ccccc1`
a: 2.28

q: Need z-score, item O=C1c2ccccc2C(=O)C2CC([C@H]3Oc4ccccc4S(=O)(=O)N4CCC[C@@H]34)=CCC12 (some centres undefined)
a: -1.71

q: Need z-score, item `CC(C)CNC(=O)[C@@]1(C)c2ccccc2C(=O)N(Cc2ccccc2)[C@H]1c1ccc(CO)cc1`
a: -1.26

q: Need z-score, item `C[C@H]1ON(c2ccccc2)[C@@H](c2ccccc2)[C@@H]1C(=O)N1C(=O)OC[C@@H]1c1ccccc1`
a: 0.84

q: Need z-score, item `O=C(N1CCOCC1)[C@@]1(CCS(=O)(=O)c2ccccc2)COC(c2ccc(OCCCO)cc2)=N1`
a: -1.85

q: Need z-score, item CC(C)C[C@H]1NC(=O)[C@H](C)NC(=O)[C@@]23C(=O)N[C@@H](Cc4ccccc4)C2[C@H](C)[C@@]2(C)O[C@H]2C3/C=C/C/C=C\CNC1=O (some centres undefined)
a: 0.171

Continuing:
q: Need z-score, item CN1C(=O)C2C=CC(C(O)c3cccc4ccccc34)N(NC(=O)OC(C)(C)C)C2C1=O (centres undefined)
a: 0.93

q: Need z-score, item `[N-]=[N+]=Nc1ccccc1[C@@H]1OC(c2ccc(OCCCO)cc2)=N[C@]1(CCS(=O)(=O)c1ccccc1)C(=O)NCc1ccccc1`
a: 0.271

q: Need z-score, item CCOc1cc(C(O)C2C=CC3C(=O)NC(=O)C3N2Nc2ccccn2)ccc1O (centres undefined)
a: -0.027

q: Need z-score, item `C[N+](C)(C)CCCCCCNC(=O)[C@H]1C[C@H]2C(=O)N3CCC[C@H]3C(=O)N2[C@H]1c1cccc(OCCO)c1`
a: 4.55

q: Need z-score, item `CCOC(=O)C[C@H]1[C@H](OC(=O)Cc2ccc3c(c2)OCO3)[C@@H](NC(=O)c2ccccc2)c2cc(OCCCO)ccc2N1C(=O)c1ccccc1`
a: -1.73

q: Need z-score, item `COCCOC(=O)N1C(=O)[C@@]2(c3ccccc31)[C@H](c1ccccc1OCCO)N1[C@H](c3ccccc3)[C@H](c3ccccc3)OC(=O)[C@H]1[C@@H]2C(=O)N1CCc2cc(OC)c(OC)cc2C1`
a: -1.61

q: Need z-score, item `CC(C)CN1C(=O)[C@@]2(Cc3ccccc31)c1ccccc1C(=O)N(Cc1ccccc1)[C@H]2c1ccc(CO)cc1`
a: -0.314

q: Need z-score, item CCN(CC)c1ccc(N2CC=CC34O[C@@H]5/C=C\CCCOC(=O)C5[C@H]3C(=O)N(CCCCCCO)[C@@H]4C2=O)cc1 (some centres undefined)
a: -0.489

q: Need z-score, item `O=c1c2ccc(Br)cc2nc(-c2ccccc2)n1Cc1cccc(O)c1`
a: 4.59
